- Subject Of Test: PHGDH (Homo sapiens (Human), UniProt O43175)
- Sequence (O43175 whole entry): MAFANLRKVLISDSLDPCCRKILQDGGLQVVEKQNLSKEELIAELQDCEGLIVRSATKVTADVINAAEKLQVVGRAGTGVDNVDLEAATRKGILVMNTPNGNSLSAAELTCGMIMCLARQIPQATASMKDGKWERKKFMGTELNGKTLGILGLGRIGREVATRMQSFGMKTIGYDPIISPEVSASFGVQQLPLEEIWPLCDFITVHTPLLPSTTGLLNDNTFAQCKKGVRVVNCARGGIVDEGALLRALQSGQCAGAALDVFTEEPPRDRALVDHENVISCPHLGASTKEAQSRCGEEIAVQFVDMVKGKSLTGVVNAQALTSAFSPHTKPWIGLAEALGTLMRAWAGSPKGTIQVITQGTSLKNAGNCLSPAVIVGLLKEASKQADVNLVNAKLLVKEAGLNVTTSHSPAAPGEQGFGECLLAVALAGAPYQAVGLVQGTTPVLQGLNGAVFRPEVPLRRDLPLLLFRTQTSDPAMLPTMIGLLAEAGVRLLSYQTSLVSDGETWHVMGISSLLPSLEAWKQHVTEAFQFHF
- Assay Overview: PHGDH inhibition, coupled assay with PSAT1/PSPH and diaphorase/resazurin readout
- Type: biochemical
- Run Conditions: Table E9; mixture with PSAT1, PSPH; diaphorase/resazurin reporter
Measurement Name: IC50

1) Cc1cc(C)nc(NC(=S)N2CCN(Cc3ccc(C)c(C(F)(F)F)c3)CC2)c1
5 to 10 µM
2) Cc1cc(C)nc(NC(=S)N2CCN(c3ccc(Cl)c(Cl)c3)CC2)c1
≥ 20 µM
3) Cc1cc(C)nc(NC(=S)N2CCN(Cc3ccccc3Cl)CC2)c1
10 to 20 µM
4) COc1cccc(NC(=S)N2CCN(c3ccc(Cl)c(Cl)c3)CC2)n1
≥ 20 µM
5) Cc1cc(C)nc(NC(=S)N2CCN(c3ccc4cn(C)nc4c3)CC2)c1
≥ 20 µM
6) Cc1cc(C)nc(NC(=S)N2CC3CN(c4ccc(Cl)cc4C(F)(F)F)CC3C2)c1 (stereo not drawn)
10 to 20 µM
7) Cc1cc(C)nc(NC(=S)N2CCN(c3ccc([N+](=O)[O-])cc3Cl)CC2)c1
10 to 20 µM
8) Cc1cc(C)nc(NC(=S)N2CCN(c3ccc(C(=O)O)cc3)CC2)c1
≥ 20 µM
9) Cc1ccnc(NC(=S)N2CCN(c3cccc(C(F)(F)F)c3)C2)c1
≥ 20 µM
10) Cc1cc(C)nc(NC(=S)N2CCN(c3cc(C(F)(F)F)cc(C(F)(F)F)c3)CC2)c1
5 to 10 µM
11) COc1ccc(NC(=S)N2CCN(c3cccc(C(F)(F)F)c3)CC2)nc1
≥ 20 µM
12) Cc1ccnc(NC(=S)N2CCCC(Nc3cccc(C(F)(F)F)c3)C2)c1 (stereo not drawn)
5 to 10 µM
13) Cc1cc(C)nc(NC(=S)N2CCN(Cc3ccc(Cl)cc3)CC2)c1
10 to 20 µM
14) Cc1cc(C)nc(NC(=S)N2CCN(c3ccc(Cl)cc3F)CC2)c1
5 to 10 µM
15) Cc1ccnc(NC(=S)N2CCCN(c3cccc(C(F)(F)F)c3)CC2)c1
10 to 20 µM
16) Cc1cc(C)nc(NC(=S)N2CCN(Cc3ccccc3Br)CC2)c1
10 to 20 µM
17) Cc1cc(C)nc(NC(=S)N2CCCC(NC(=O)c3cccc(C(F)(F)F)c3)C2)c1 (stereo not drawn)
< 5 µM
18) Cc1cc(C)nc(NC(=S)N2CCN(c3nc4ccccc4o3)CC2)c1
10 to 20 µM

###

- Subject Of Test: PHGDH (Homo sapiens (Human))
- Assay Overview: PHGDH inhibition, coupled assay with PSAT1/PSPH and diaphorase/resazurin readout
- Run Conditions: Table E9; mixture with PSAT1, PSPH; diaphorase/resazurin reporter
pIC50: −log10 of the molar value.
Measurement Name: pIC50

1) Cc1ccnc(NC(=S)N2CCN(c3cc(Cl)cc(Cl)c3)CC2)c1
5.00 to 5.30
2) Nc1nc(NC(=S)N2CCN(c3cccc(C(F)(F)F)c3)CC2)n[nH]1
≤ 4.70
3) Cc1ccnc(NC(=S)N[C@@H]2CCN(c3cccc(C(F)(F)F)c3)C2)c1
≤ 4.70
4) Cc1cc(C)nc(NC(=S)N2CCC(CN3CCOCC3)CC2)c1
≤ 4.70
5) Cc1cc(C)nc(NC(=S)N2CCN(Cc3ccccc3)CC2)c1
4.70 to 5.00
6) Cc1cc(C)nc(NC(=S)N2CCN(Cc3ccccc3C(F)(F)F)CC2)c1
4.70 to 5.00
7) COc1ccnc(NC(=S)N2CCN(c3cccc(C(F)(F)F)c3)CC2)c1
> 5.30
8) Cc1ccnc(NC(=S)N2CCN(c3ccc(Cl)c(Cl)c3)CC2)c1
5.00 to 5.30
9) COc1ccc2nc(NC(=S)N3CCN(c4cccc(C(F)(F)F)c4)CC3)[nH]c2c1 [Compound 243]
> 5.30
10) Cc1ccnc(NC(=S)N2CCN(c3cccc(Cl)c3Cl)CC2)c1
5.00 to 5.30
11) COc1cccc(NC(=S)N2CCN(c3cc(Cl)cc(Cl)c3)CC2)n1
≤ 4.70
12) Cc1cccc(N2CCN(C(=S)Nc3cc(C)ccn3)CC2)c1
4.70 to 5.00
13) COc1ccccc1N[S+](=O)([O-])c1cc(NC(=O)Cc2ccc(Cl)cc2Cl)ccc1N1CCCC1
≤ 4.70
14) Cc1ccnc(NC(=S)N2CCN(c3cc(F)cc(Cl)c3)CC2)c1
> 5.30
15) Cc1ccnc(NC(=S)N2CC3CN(c4cccc(C(F)(F)F)c4)CC3C2)c1 (stereo not drawn)
4.70 to 5.00
16) COc1ccnc(NC(=S)N2CCN(c3ccc(Cl)c(Cl)c3)CC2)c1
5.00 to 5.30
17) Cc1nc(CN(C)c2ncnc3ccc(-c4ccc5[nH]ncc5c4)cc23)cs1
≤ 4.70
18) Cc1ccnc(NC(=S)N2CCC(Nc3cccc(C(F)(F)F)c3)CC2)c1
5.00 to 5.30
19) Cc1cc(C)nc(NC(=S)N2CCN(c3ncccn3)CC2)c1
≤ 4.70
20) Cc1cc(C)nc(NC(=S)N2CCN(c3ccc(C(F)(F)F)cc3Cl)CC2)c1
5.00 to 5.30
21) Cc1cc(NC(=S)N2CCN(c3cccc(C(F)(F)F)c3)CC2)nc2ccccc12
≤ 4.70
22) Cc1cc(C)nc(NC(=S)N2CCN(Cc3cccc4ccccc34)CC2)c1
≤ 4.70
23) FC(F)(F)c1cccc(N2CCN(C(=S)Nc3nccc4ccccc34)CC2)c1
5.00 to 5.30
24) Cc1ccnc(N(C)C(=S)N2CCN(c3cccc(C(F)(F)F)c3)CC2)c1
≤ 4.70
25) Cc1cc(C)nc(NC(=S)N2CCN(c3ccc(F)c(F)c3)CC2)c1
5.00 to 5.30
26) Cc1cc(C)nc(NC(=S)N2CCN(c3nccs3)CC2)c1
≤ 4.70
27) Cc1cc(C)nc(NC(=S)N2CCC(NC(=O)c3cccc(C(F)(F)F)c3)CC2)c1
> 5.30
28) CCN1CCN(C(=S)c2ccc(O)cc2)CC1
≤ 4.70
29) Cc1cc(C)nc(N/C(=N/C#N)N2CCN(c3cccc(C(F)(F)F)c3)CC2)c1
≤ 4.70
30) Cc1ccnc(NC(=S)N2CCN(c3ccc(C#N)cc3)CC2)c1
≤ 4.70

###

- Subject Of Test: PHGDH (Homo sapiens (Human), UniProt O43175)
- Assay Overview: PHGDH inhibition, coupled assay with PSAT1/PSPH and diaphorase/resazurin readout
- Run Conditions: Table E9; mixture with PSAT1, PSPH; diaphorase/resazurin reporter
Measurement Name: IC50

1) Cc1cc(C)nc(NC(=S)N2CCN(c3cc(Cl)cc(Cl)c3)CC2)c1
5 to 10 µM
2) Cc1cc(C)nc(NC(=S)N2CCN(Cc3c(F)cccc3Cl)CC2)c1
5 to 10 µM
3) Cc1cc(C)nc(NC(=S)N2CCN(Cc3ccc(C(F)(F)F)cc3)[C@@H](C)C2)c1
< 5 µM
4) Cc1cc(C)nc(NC(=S)N2CCN(c3cccc(OC(F)(F)F)c3)CC2)c1
5 to 10 µM
5) FC(F)(F)c1cccc(N2CCN(C(=S)Nc3nc[nH]n3)CC2)c1 [Compound 234]
≥ 20 µM
6) Cc1cc(C)nc(NC(=S)N2CCN(c3ccc([N+](=O)[O-])c4cccnc34)CC2)c1
≥ 20 µM
7) Cc1ccnc(NC(=S)NCCNc2cccc(C(F)(F)F)c2)c1
5 to 10 µM
8) Cc1cc(C)nc(NC(=S)N2CCCC(NC(=O)c3ccc(C(F)(F)F)cc3)C2)c1 (centres unmarked)
< 5 µM
9) Cc1ccnc(C(=S)N2CCN(c3cccc(C(F)(F)F)c3)CC2)c1
≥ 20 µM
10) Cc1cc(C)nc(NC(=S)N2CCN(c3cncs3)CC2)c1
≥ 20 µM
11) CC(=O)c1ccc(N2CCN(C(=S)Nc3cc(C)ccn3)CC2)cc1
≥ 20 µM
12) Cc1cccc(NC(=S)N2CCN(c3cccc(C(F)(F)F)c3)CC2)c1
≥ 20 µM
13) COC(=O)c1ccnc(NC(=S)N2CCN(c3cccc(C(F)(F)F)c3)CC2)c1
< 5 µM
14) Cc1cc(C)nc(NC(=S)N2CCCC(Nc3cccc(C(F)(F)F)c3)C2)c1 (centres unmarked)
< 5 µM

###

- Subject Of Test: PHGDH (Homo sapiens (Human))
- Assay Overview: PHGDH inhibition, coupled assay with PSAT1/PSPH and diaphorase/resazurin readout
- Run Conditions: Table E9; mixture with PSAT1, PSPH; diaphorase/resazurin reporter
Measurement Name: IC50

1. Cc1cc(C)nc(NC(=S)N2CCN(c3cccc([S+](C)[O-])c3)CC2)c1 (centres unmarked)
≥ 20 µM
2. Cc1cc(C)nc(NC(=S)N2CCN(Cc3ccccc3F)CC2)c1
10 to 20 µM
3. Cc1cc(C)nc(NC(=S)N2CCN(c3ccc(Cl)cc3[N+](=O)[O-])CC2)c1
5 to 10 µM
4. Cc1cc(C)nc(NC(=S)N2CCN(c3ccc(C(F)(F)F)cc3C(F)(F)F)CC2)c1
5 to 10 µM
5. Cc1ccnc(NC(=S)N2CCc3cccc(C(F)(F)F)c3C2)c1
10 to 20 µM
6. CC(Cc1ccccc1)C(=O)Nc1ccc(Cl)cc1C(=O)O (centres unmarked)
≥ 20 µM
7. Cc1cc(C)nc(NC(=C(C#N)C#N)N2CCN(c3cccc(C(F)(F)F)c3)CC2)c1
≥ 20 µM
8. Cc1cc(C)nc(NC(=S)N2CCC(C(=O)N3CCCCC3)CC2)c1
≥ 20 µM
9. Cc1cc(C)nc(NC(=S)N2CCN(c3nccc4occc34)CC2)c1
10 to 20 µM
10. Cc1cc(C)nc(NC(=S)N2CCN(c3ccc4occc4c3)CC2)c1
10 to 20 µM
11. Cc1cccc2nc(NC(=S)N3CCN(c4cccc(C(F)(F)F)c4)CC3)[nH]c12
< 5 µM
12. COc1ccc(CN2CCN(C(=S)Nc3cc(C)cc(C)n3)CC2)cc1
10 to 20 µM
13. Cc1ccnc(NC(=S)N2CCN(c3ccc(O)cc3)CC2)c1
≥ 20 µM
14. COc1ccnc(NC(=S)N2CCN(c3ccc(Cl)cc3Cl)CC2)c1
10 to 20 µM
15. COc1cc(OC)cc(N2CCN(C(=S)Nc3cc(C)cc(C)n3)CC2)c1
10 to 20 µM
16. Cc1ccnc(NC(=S)N2CCN(C)CC2)c1
≥ 20 µM
17. Cc1ccc(N2CCN(C(=S)Nc3cc(C)ccn3)CC2)cc1
≥ 20 µM
18. Cc1ccnc(NC(=S)N2CCN(c3ccccc3C(F)(F)F)CC2)c1
5 to 10 µM
19. Cc1cc(C)nc(NC(=S)N2CCN(c3cccc(C#N)c3)CC2)c1
10 to 20 µM
20. Cc1ccnc(NC(=S)N2CCN(c3ccc(Cl)cc3Cl)CC2)c1
5 to 10 µM
21. Cc1cc(C)nc(NC(=S)N2CCN(c3cc4ccccc4cn3)CC2)c1
≥ 20 µM
22. Cc1cc(C)nc(NC(=S)N2CCN(c3ccc(Cl)nn3)CC2)c1
≥ 20 µM
23. Cc1cc(C)nc(NC(=S)N2CCN(c3cccc4cnccc34)CC2)c1
10 to 20 µM
24. Cc1ccc2nc(NC(=S)N3CCN(c4cccc(C(F)(F)F)c4)CC3)[nH]c2c1 [Compound 242]
< 5 µM
25. Cc1cc(C)nc(NC(=S)N2CCN(c3nccc(C(F)(F)F)n3)CC2)c1
< 5 µM
26. FC(F)(F)c1cnc(N2CCN(C(=S)Nc3cc(Cl)ccn3)CC2)c(Cl)c1
10 to 20 µM
27. Cc1cc(C)nc(NC(=S)N2CCN(CCN3CCCCC3)CC2)c1
≥ 20 µM
28. Cc1cc(C)nc(NC(=S)N2CCN(c3ccc(N4CCCC4)nn3)CC2)c1
≥ 20 µM
29. Cc1cc(C)nc(NC(=S)N2CCN(c3ccncc3)CC2)c1
≥ 20 µM
